Sourced from ChEMBL document CHEMBL1136680

# Tested on: EMT6
# ASSAY_INFO: In vitro phototoxicity in EMT-6 cells at 1 uM after 6 hr MTT assay; Not active
# Assay type: functional, cell-based
# RUN_CONDITIONS: Mus musculus, tested as the Zn salt or complex
Active and inactive are the calls of the source. No cut-off for these calls is given here.

SMILES_REPR: CCCCc1ccc2c(c1)-c1nc-2nc2[nH]c(nc3nc(nc4[nH]c(n1)c1ccc(CCCC)cc41)-c1cccc(C#C[C@@]4(O)CC[C@H]5[C@@H]6CCc7cc(O)ccc7[C@H]6CC[C@@]54C)c1-3)c1ccc(CCCC)cc21
TESTED_ON: EMT6
LD90: inactive
//
SMILES_REPR: CCCCc1ccc2c(c1)-c1nc-2nc2[nH]c(nc3nc(nc4[nH]c(n1)c1ccc(CCCC)cc41)-c1ccc(C#C[C@@]4(O)CC[C@H]5[C@@H]6CCc7cc(O)ccc7[C@H]6CC[C@@]54C)cc1-3)c1ccc(CCCC)cc21
TESTED_ON: EMT6
LD90: inactive
//
SMILES_REPR: CCCCc1ccc2c(c1)-c1nc-2nc2[nH]c(nc3nc(nc4[nH]c(n1)c1ccc(CCCC)cc41)-c1ccc(C#CC#Cc4cccc([C@@]5(O)CC[C@H]6[C@@H]7CCc8cc(O)ccc8[C@H]7CC[C@@]65C)c4)cc1-3)c1ccc(CCCC)cc21
TESTED_ON: EMT6
LD90: inactive
